The reader will find reported pKa1(L) values listed item by item below.
MEASUREMENT_PROTOCOL: pKa determination by spectrophotometric titration
Assay type: physicochemical
TEST_CONDITIONS: ligand, spectrophotometric titration, Example 53

[
  {
    "MOLECULE": "CN(C)Cc1c(O)c(=O)ccn1CC(F)(F)F",
    "pKa1(L)": 9.6
  },
  {
    "MOLECULE": "O=c1ccn(CC(F)(F)F)c(CN2CCOCC2)c1O",
    "pKa1(L)": 9.2
  },
  {
    "MOLECULE": "CNC(c1cn(C)c(C)c(O)c1=O)C(F)(F)F (stereo not shown)",
    "pKa1(L)": 9.8
  },
  {
    "MOLECULE": "Cc1c(O)c(=O)c(C(N2CCOCC2)C(F)(F)F)cn1C (stereo not shown)",
    "pKa1(L)": 9.8
  }
]

====

MEASUREMENT_PROTOCOL: Fe speciation plot (HySS)
Assay type: physicochemical
TEST_CONDITIONS: Fe:ligand 1:10, [Fe]=1×10^−6 M, [L]=1×10^−5 M
The following compounds are listed with their measured % FeL3H (species 131) at pH 7.4 values.

[
  {
    "COMPOUND": "CNC(c1cn(C)c(C)c(O)c1=O)C(F)(F)F (stereo not shown) [Apo7056]",
    "% FeL3H (species 131) at pH 7.4 [%]": 2.40
  },
  {
    "COMPOUND": "Cc1c(O)c(=O)c(C(N2CCOCC2)C(F)(F)F)cn1C (stereo not shown) [Apo7435]",
    "% FeL3H (species 131) at pH 7.4 [%]": 0.00
  },
  {
    "COMPOUND": "CN(C)Cc1c(O)c(=O)ccn1CC(F)(F)F [Apo7067]",
    "% FeL3H (species 131) at pH 7.4 [%]": 61.8
  },
  {
    "COMPOUND": "O=c1ccn(CC(F)(F)F)c(CN2CCOCC2)c1O [Apo7323]",
    "% FeL3H (species 131) at pH 7.4 [%]": 3.1
  }
]

====

MEASUREMENT_PROTOCOL: Pharmacokinetics following oral administration to rats
Assay type: in vivo, male Sprague Dawley rats
TEST_CONDITIONS: rat, oral 50 mg/kg in 0.5% CMC, dose-normalized

[
  {
    "COMPOUND": "Cc1[nH]cc(C(N2CCOCC2)C(F)(F)F)c(=O)c1O (stereo not shown)",
    "Brain Cmax_D [kg·µg/mL/mg]": 0.400
  },
  {
    "COMPOUND": "Cn1ccc(=O)c(O)c1C(N1CCOCC1)C(F)(F)F (stereo not shown)",
    "Brain Cmax_D [kg·µg/mL/mg]": 0.178
  },
  {
    "COMPOUND": "O=c1ccn(CC(F)(F)F)c(CN2CCOCC2)c1O",
    "Brain Cmax_D [kg·µg/mL/mg]": 0.218
  },
  {
    "COMPOUND": "Cc1c(O)c(=O)c(C(N2CCOCC2)C(F)(F)F)cn1C (stereo not shown)",
    "Brain Cmax_D [kg·µg/mL/mg]": 0.102
  }
]

====

molecules and their reported Log β133 (Fe3+)
MEASUREMENT_PROTOCOL: Stepwise formation constants for Fe-ligand system by titration in 0.1M NaCl
Type: physicochemical
TEST_CONDITIONS: 0.1 M NaCl, spectrophotometric titration

[
  {
    "MOLECULE": "CNC(c1cn(C)c(C)c(O)c1=O)C(F)(F)F (centres unmarked)",
    "Log β133 (Fe3+)": 51.5
  },
  {
    "MOLECULE": "Cc1c(O)c(=O)c(C(N2CCOCC2)C(F)(F)F)cn1C (centres unmarked)",
    "Log β133 (Fe3+)": 44.8
  },
  {
    "MOLECULE": "CN(C)C(c1c(O)c(=O)ccn1C)C(F)(F)F (centres unmarked)",
    "Log β133 (Fe3+)": 50.5
  },
  {
    "MOLECULE": "O=c1ccn(CC(F)(F)F)c(CN2CCOCC2)c1O",
    "Log β133 (Fe3+)": 50.1
  },
  {
    "MOLECULE": "CN(C)Cc1c(O)c(=O)ccn1CC(F)(F)F",
    "Log β133 (Fe3+)": 55.7
  }
]

====

MEASUREMENT_PROTOCOL: pKa determination by spectrophotometric titration
Assay type: physicochemical
TEST_CONDITIONS: ligand, spectrophotometric titration, Example 53

[
  {
    "COMPOUND": "CN(C)Cc1c(O)c(=O)ccn1CC(F)(F)F",
    "pKa3(L)": 0.8
  },
  {
    "COMPOUND": "Cc1c(O)c(=O)c(C(N2CCOCC2)C(F)(F)F)cn1C (stereo not shown)",
    "pKa3(L)": 0.0
  },
  {
    "COMPOUND": "O=c1ccn(CC(F)(F)F)c(CN2CCOCC2)c1O",
    "pKa3(L)": 0.8
  },
  {
    "COMPOUND": "CNC(c1cn(C)c(C)c(O)c1=O)C(F)(F)F (stereo not shown)",
    "pKa3(L)": 0.4
  }
]

====

System: SH-SY5Y human neuroblastoma cells
TEST_CONDITIONS: absence of H2O2, viability below 80%
Returns: string. Value is TRUE if measured CC1 (cytotoxic concentration) is below 40 µM, and FALSE if it is greater than or equal to it.

[
  {
    "COMPOUND": "Cn1ccc(=O)c(O)c1C(NC1CC1)C(F)(F)F (stereo not shown) [Apo7074]",
    "CLASS": "TRUE"
  },
  {
    "COMPOUND": "Cc1c(O)c(=O)c(C(N2CCCCC2)C(F)(F)F)cn1C (stereo not shown) [Apo7054]",
    "CLASS": "TRUE"
  },
  {
    "COMPOUND": "O=c1ccn(CC(F)(F)F)c(CN2CCOCC2)c1O [Apo7323]",
    "CLASS": "FALSE"
  },
  {
    "COMPOUND": "Cc1[nH]cc(C(N2CCOCC2)C(F)(F)F)c(=O)c1O (stereo not shown) [Apo7433]",
    "CLASS": "FALSE"
  },
  {
    "COMPOUND": "C#CCN(C)C(c1c(O)c(=O)ccn1C)C(F)(F)F (stereo not shown) [Apo7057]",
    "CLASS": "TRUE"
  },
  {
    "COMPOUND": "Cn1ccc(=O)c(O)c1C(C(F)F)N1CCN(c2ccccn2)CC1 (stereo not shown) [Apo7316]",
    "CLASS": "FALSE"
  },
  {
    "COMPOUND": "Cc1cc(=O)c(O)cn1CC(F)(F)F [Apo6994]",
    "CLASS": "FALSE"
  },
  {
    "COMPOUND": "C=CCNC(c1c(O)c(=O)ccn1C)C(F)(F)F (stereo not shown) [Apo7075]",
    "CLASS": "TRUE"
  },
  {
    "COMPOUND": "CN(C)C(c1c(O)c(=O)ccn1C)C(F)(F)F (stereo not shown) [Apo7041]",
    "CLASS": "FALSE"
  },
  {
    "COMPOUND": "Cc1c(Cl)c(=O)c(O)c(CC(F)(F)F)n1C [Apo7040]",
    "CLASS": "FALSE"
  },
  {
    "COMPOUND": "CN(C)C(c1c(O)c(=O)c(Cl)cn1C)C(F)(F)F (stereo not shown) [Apo7060]",
    "CLASS": "FALSE"
  },
  {
    "COMPOUND": "Cn1cc(Cl)c(=O)c(O)c1CC(F)(F)F [Apo7066]",
    "CLASS": "FALSE"
  },
  {
    "COMPOUND": "Cc1cc(=O)c(O)c(CN2CCOCC2)n1CC(F)(F)F [Apo7434]",
    "CLASS": "FALSE"
  },
  {
    "COMPOUND": "Cc1cc(=O)c(O)c(C(N2CCN(c3ccccc3)CC2)C(F)(F)F)n1C (stereo not shown) [Apo7335]",
    "CLASS": "FALSE"
  },
  {
    "COMPOUND": "Cn1ccc(=O)c(O)c1C(N1CCOCC1)C(F)(F)F (stereo not shown) [Apo7448]",
    "CLASS": "FALSE"
  },
  {
    "COMPOUND": "Cc1c(O)c(=O)c(C(N2CCOCC2)C(F)(F)F)cn1C (stereo not shown) [Apo7435]",
    "CLASS": "FALSE"
  },
  {
    "COMPOUND": "Cc1cc(=O)c(O)c(CN2CCCCC2)n1CC(F)(F)F [Apo7071]",
    "CLASS": "TRUE"
  }
]

Hey, just so you know, these numbers are from patent US9938240B2.
